Data provenance: PubChem BioAssay (NCI)

- System: OVCAR-3 ovarian
- method.notes: NCI tumour cell line growth inhibition, 48 h
Listed compounds paired with reported TGI

A selection of reference data follows.
compound: CC(=O)NCCc1c2c(c3nccc4c3c1Nc1ccccc1-4)OCS2
system.under.test: OVCAR-3 ovarian
TGI: 5.67 µM

compound: CCNC(C)Cc1ccccc1 (stereo unspecified)
system.under.test: OVCAR-3 ovarian
TGI: > 100 µM

compound: CCOC(=O)NC(Nc1ncccn1)(C(F)(F)F)C(F)(F)F
system.under.test: OVCAR-3 ovarian
TGI: > 100 µM

Give the measured TGI for CC1=NCCN=C(C)C1N=Nc1ccc2nc(C)[nH]c2c1
44.3 µM

Give the measured TGI for CCOC(=O)c1c2c(c(O)c3ccccc3c(O)n(Cc3ccc(OC)cc3)c1C)C(=O)C=CC2=O
> 100 µM

Give the measured TGI for COc1cc(C2SC(N)=Nc3c2c(C)nn3C(=O)c2ccccc2O)cc(OC)c1OC (stereo unspecified)
> 10 µM

* * *

- Tested on: HCC-2998 colon
- method.notes: NCI tumour cell line growth inhibition, 48 h; in the data active = GI50 below about 0.43 µM; inactive = the rest
Write down one outcome, taken from T for active, F for inactive

molecule: COc1cc2c3c(n(CCCN)c(=O)c2cc1OC)-c1ccccc1C3=O
class.label: F

molecule: FC(F)(F)c1nc(N2CCCC2)ncc1-c1nnnn1-c1ccc(Cl)cc1
class.label: F

Look up the recorded call for COc1ccc2[nH]c(=O)c3c4ccccc4cn3c2c1 in this test.
T

Look up the recorded call for COc1cc2c(cc1O)CC[C@@H]1[C@@H]2CC[C@]2(C)[C@@H](NCCN(C)C)CC[C@@H]12 in this test.
T

Look up the recorded call for O=C1C(Cl)=C(Nc2cccc(Cl)c2)C(=O)N1Cc1ccccc1 in this test.
F

Look up the recorded call for COc1cc(C2c3[nH]c4ccccc4c3C[C@H]3COC(=O)N23)cc(OC)c1OC (stereo not given in full) in this test.
T

Look up the recorded call for Nc1c(C(=O)c2cccc(CCCN3CCOCC3)c2)cnn1-c1ccc(F)cc1 in this test.
F

Look up the recorded call for COc1cc(C(=O)/C=C/c2c(C)n([O-])c3ccc(C)cc3[n+]2=O)cc(OC)c1OC in this test.
F

Look up the recorded call for CCOC(=O)c1c2c(c(O)c3ccccc3c(O)n(Cc3ccc(OC)cc3)c1C)C(=O)C=CC2=O in this test.
F

Look up the recorded call for COc1ccc(-c2cc(-c3cc(Cl)ccc3Cl)nc3n[nH]c(N)c23)cc1 in this test.
F

* * *

- Tested on: NCI-H522 lung
- method.notes: NCI tumour cell line growth inhibition, 48 h
quantity: TGI

molecule: CCNC(C)Cc1ccccc1 (stereo unspecified)
TGI: > 100 µM

Give the measured TGI for CC(=N\N)/C(C)=N/N=C(C)/C(C)=N/N=C(C)/C(C)=N/N=C(C)/C(C)=N/N
> 100 µM

Give the measured TGI for COc1ccc(Oc2cccc(/C=C3/C(=O)Nc4ccccc43)c2)cc1
19.6 µM

Give the measured TGI for NC(=O)NNCc1ccccc1
> 100 µM

Give the measured TGI for O=[N+]([O-])c1ccc(S(=O)(=O)Cc2ccccc2)c([N+](=O)[O-])c1
2.81 µM

Give the measured TGI for CC(=O)OC12/C(=N/O)CCCCCC1c1ccccc12 (stereo unspecified)
98.9 µM

* * *

- Test system: UO-31 renal
- method.notes: NCI tumour cell line growth inhibition, 48 h
Outcome label depends on TGI relative to 30 µM: at/above gives Condition met, below gives Condition not met.

Form field: TGI at least 30 µM? Entry: COC(=O)[C@@]12C(=O)C=CC(=O)[C@@H]1C1C(=CC2COC(C)=O)O[C@@H]2OC3(CCCCC3)O[C@H]12 (some centres not stated)
Condition not met

Form field: TGI at least 30 µM? Entry: CC(=O)OC1C(C)OC(Oc2c(C)c3c4c(c2O)[C@@H](C)CC[C@@H]4[C@@H](C)C[C@H]3C=C(C)C)C(O)C1O (some centres not stated)
Condition met

* * *

Listed molecules paired with reported TGI
- System: SF-268 CNS
- method.notes: NCI tumour cell line growth inhibition, 48 h
*1 amine or outer side, *2 acyl side, *3 side chain or, on linkers, in order; H or OH if unused. Where a SMILES comes first, the peptide text is derived from it. [ ]: non-standard residue; d: D form. The star is where a group is joined. X31 = CC(=O)N(C)SCC(N[*:1])C(=O)[*:2]; X47 = CC(=O)N(C)SCC(N*)/C(O)=N\O; Cbz = O=C(OCc1ccccc1)*; Bn = c1ccc(C*)cc1; For = O=C*

A selection of reference data follows.
molecule: CC(=O)OC1=c2ccccc2=C(O)C2C1C=NN2C(C)=O (stereo not drawn)
TGI: > 100 µM
--
molecule: O=c1cc(NCCCCCO)[nH]c(=O)[nH]1
TGI: > 100 µM
--
molecule: O=P1(C(O)/C=C/c2ccccc2)N(Cc2ccccc2)[C@H](c2ccccc2)[C@@H](c2ccccc2)N1Cc1ccccc1 (stereo partly drawn)
TGI: > 100 µM
--
molecule: CCOC(=O)NC(Nc1ncccn1)(C(F)(F)F)C(F)(F)F
TGI: > 100 µM
--
molecule: Nc1ccc(S(=O)(=O)Nc2nnc(S(N)(=O)=O)s2)cc1
TGI: > 100 µM
--
molecule: Cc1ccc(-c2nc(C)c(C(=O)Nc3ccc(Cl)cc3)s2)cc1
TGI: 91.8 µM
--
molecule: COc1cc(C2SCC(=O)N2c2cc(Cl)c(Cl)cc2Cl)cc(OC)c1OC (stereo not drawn)
TGI: > 100 µM
--
molecule: Cc1cc(N(CCC#N)CCC#N)ccc1/C(N=Nc1ccc(Cl)cc1)=N\NC(=O)c1cc(Cl)ccc1O
TGI: 86.2 µM
--
molecule: CC1(C)[C@H](C(=O)O)N2C(=O)[C@@H](NS(=O)(=O)c3ccc([N+](=O)[O-])cc3)[C@H]2S1(=O)=O
TGI: > 100 µM
--
molecule: O=C(Nn1c(-c2ccccc2)nc2ccccc2c1=O)c1ccc(CS)cc1
TGI: > 100 µM

Give the measured TGI for O=C[C@@H](CO)O[C@H](C=O)c1c[nH]c(=O)[nH]c1=O
427 µM

Give the measured TGI for Cc1cc(N(CCC#N)CCC#N)ccc1/C=C1N=C(/C=C\c2ccccc2)OC\1=O
> 100 µM

Give the measured TGI for CC1=NCCN=C(C)C1N=Nc1ccc2nc(C)[nH]c2c1
46.4 µM

Give the measured TGI for CC(=O)N(C)SCC(NC(=O)C(Cc1ccccc1)NC(=O)OCc1ccccc1)C(=O)NC(Cc1ccccc1)C(=O)NC(Cc1cn(C=O)c2ccccc12)C(=O)NC(CCCCNC(=O)OCc1ccccc1)C(=O)NC(C(=O)NC(CSN(C)C(C)=O)/C(O)=N\O)C(C)OCc1ccccc1 (stereo not drawn) (Cbz-F[X31]FW(For)K(Cbz)T(Bn)-X47; configuration not given here)
> 100 µM

Give the measured TGI for COC(=O)C1=C(c2ccc(OC)c(OC)c2)OC(c2ccc(OC)c(OC)c2)C1 (stereo not drawn)
> 100 µM

Give the measured TGI for CCOC(=O)c1c2c3c(cccc3[nH]c1=O)Sc1ncccc1-2
> 100 µM

* * *

- Test system: K-562 leukemia
- method.notes: NCI tumour cell line growth inhibition, 48 h
Listed compounds paired with reported TGI

compound: O=S(=O)(O)c1c(Cl)cc(O)c2ncccc12
measured: > 100 µM

compound: COc1cc(NS(C)(=O)=O)ccc1Nc1c2ccc([N+](=O)[O-])cc2nc2c(C)cccc12
measured: 9.89 µM

compound: Cc1c(N2CCCC2)cc2c(c1NC(=O)c1ccccc1Cl)C(C)(C)CC2(C)C
measured: > 100 µM

Give the measured TGI for COc1cc(C=O)ccc1Oc1nnnn1-c1ccccc1
> 100 µM

Give the measured TGI for NNC(=O)CSc1nc2ccc(I)cc2c(=O)n1Cc1ccccc1
88 µM

Give the measured TGI for Nc1sc2c(c1C(=O)c1ccc(Cl)c(Cl)c1)CCCC2
> 100 µM

Give the measured TGI for CN(Cc1cnc2nc(N)nc(N)c2n1)c1ccc(C(=O)NC(CCC(=O)O)C(=O)O)cc1C(F)(F)F (stereo not given)
> 100 µM

Give the measured TGI for O=[N+]([O-])c1ccc(S(=O)(=O)Cc2ccccc2)c([N+](=O)[O-])c1
> 100 µM

Give the measured TGI for CC(C)/C=C1\CCC(CN2CCCC2)C1=O (stereo not given)
11.9 µM

Give the measured TGI for N#Cc1ccccc1NC(=O)/C(=N\N)C(C(=O)c1ccncc1)C1OC(=O)c2ccccc21 (stereo not given)
> 100 µM

* * *

- Test system: EKVX NSCLC
- method.notes: NCI tumour cell line growth inhibition, 48 h
quantity: TGI

compound: COc1cc(C2c3[nH]c4ccccc4c3C[C@H]3COC(=O)N23)cc(OC)c1OC (stereo not given in full)
measured: > 100 µM
--
compound: NCCSc1nc2ccccc2s1
measured: 80.6 µM
--
compound: CCCCCC(C)(C)CCC(=O)OC1OC(COC2OC(COC3OC(CO)C(O)C(O)C3O)C(O)C(O)C2O)C(O)C(O)C1O (stereo not given)
measured: > 100 µM

Give the measured TGI for CC(=O)OC1=c2ccccc2=C(O)C2C1C=NN2C(C)=O (stereo not given)
> 100 µM

Give the measured TGI for Cc1cccc(NC(=O)CCc2ccc(N3C(N)=NC(N)=NC3(C)C)cc2)c1
> 100 µM

Give the measured TGI for COc1cc(Cc2cc3c(c(C(=O)O)c2Br)OCO3)cc(OC)c1OC
> 100 µM

Give the measured TGI for O=C(Nc1ccccc1-c1n[nH]c(=S)[nH]c1=O)C(F)(F)F
> 100 µM

Give the measured TGI for Cc1ccc(S(=O)(=O)c2c(N)c3nc4ccccc4n3c3nc4ccccc4nc23)cc1
> 100 µM

Give the measured TGI for CC(=O)ON(C(C)=O)c1ccc(-c2nc3ccccc3s2)cc1
65.2 µM

Give the measured TGI for CCc1nc(N)nc(N)c1-c1ccc(NCCN)c([N+](=O)[O-])c1
> 100 µM
